assay.details: yeast display, Sf9 membrane polyspecificity reagent, FACS + sequencing; frameworks hold sequencing errors
reported.metric: polyreactivity (PSR sort gate)

>>> readout_value("QVQLVESGGGLVQAGGSLRLSCAASGRILYPYAMGWYRQAPGKERELVASISWSGGRTYYADSVKGRFTISRDHAKYTVYLQMNSLKPEDTAVYYCAATFSYSSYIYDYWGQGTQVTVSS")
"high polyreactivity"
>>> readout_value("QVQLVDSGGGLVQAGGSHRLSCAASGSTFYGNLMGWYRQAPGRERELVAAISGGCSTNYADSVKGRFTISRDNEKNTVYLQLNSLKPEDTAVYYCAARGVIRVGNAARYVAGYYWGQGTQVTVSS")
"high polyreactivity"
>>> readout_value("QVQLVESGGGLVQAGGSLRLSCAASGSTFLGNAMGWYRQAPGKERELVAAISGRGGSTYYADSVKGRFTISRDNAKNTVYLQMNSLKPEDTAVYYCAAPLYHYVQYGYWGQGTQVTVSS")
"high polyreactivity"
>>> readout_value("QVQLVESGGGLDQAGGSLRLSCAASGRIFSFNAMGWYRQAPGKERELVAAISWSTGSTFYADSVKGRFTISRDNAKNTVYLQMNSLKPEDTAVYYCAREYYYRRGFFLRGYWGQGTQVTVSS")
"high polyreactivity"

---

assay.details: yeast display, Sf9 membrane polyspecificity reagent, FACS + sequencing; frameworks hold sequencing errors
reported.metric: polyreactivity (PSR sort gate)

>>> readout_value("QVQLVESGGGLVQAGGSLRLSCAASGSNFRFYVMGWYRQAPGKERELVAAISIGGSTNYADSVKGRFTISRDNAKNSVYLQMNSLKPEDTAVYYCAADYWYGAGLPHGTEFDYWGQGTQVTVSS")
"low polyreactivity"
>>> readout_value("QVQLVESGGGLVQAGGSLRLSCAASGFTFPWYAKGWYRQAPGKERELVAAITSGSSTYYADSVKGRFTISRDNAKNTVYLQMNSLKPEVTAVYYCAKDGGWSRLHYNYWGQGTQVTVSS")
"high polyreactivity"
>>> readout_value("QVQLVESGGGLVQAGGSLRLSCAASGFIFGGYAMGWYRPAPGKERELVAAISSSGGSTYYADSVKGRFTISRDNAKNTVYLQMNSLKPEDTAVYYCAARIQSVSSGRWFDYWGQGTQVTVSS")
"high polyreactivity"
>>> readout_value("QVQLVESGGGLVQAGGSLRLSCAASGFIFGRYAMGWYRPAPGKERELVAAITASGGRTYYADSVKGRFTISRDNAKNTVYIQMNSLKPEDTAVYYCNTPSLWSGEDYWGQGTQVTVSS")
"low polyreactivity"
>>> readout_value("QVQLVESGGGLVQAGGSLRLSCAASGITFYGYAMGWYRQAPGKERELVATISSGGGTNYADSVKGRFTISRDNAKNTVYLQMNSLKPEDTAVYYCATDLSTVDYNYWGQGTQVTVSS")
"low polyreactivity"
>>> readout_value("QVQLVESGGGLVQAGGSLRLSCAASGITLYYYVMGWYRQAPGKERELVAAISWNSGRTYYADSVKGRFTISRDNAKNTVYLQMNSLKPEDTAVYYCAARPPVRLTYRYSYDYWGQGTQVTVSS")
"high polyreactivity"
>>> readout_value("QVQLVESGGGLVQAGGSLRLSCAASGSIFRHNAMGWYRQAPGKERELVAAITSRGGSTYYADSVKGRFTISRDNAKNTVYLQMNSLKPEDTAVYYCAAGGHYYSSPGYNYWGQGTQVTVSS")
"high polyreactivity"
>>> readout_value("QVQLVESGGGLVQAGGSLRLSCAASGRTLIAYAMGWYRQAPGKEREFVAAIRADDGRTYYADSVKGRFTISRDNAMNTVYLQMNSLKPDDTAVYYCATKADKRYRFGYWGQGTQVTVSS")
"high polyreactivity"
>>> readout_value("HVQLVESGGGLVQAGASLRLSCAASGRIFGRNAMGWYRQAPGKERELVAAISGNGGSTYYADSVKGRFTISRDIAKNTVYLQMNSLKPEDTAGYYCATKYFSRMDYWGQGTQVTVSS")
"high polyreactivity"
>>> readout_value("QVQLVESGGGLVQAGGSLRLSCAASGSIFSYYAMGWYRQAPGKERELVASISWNGTSTYYADSVKGRFTISRDNAKNTVDLQMNSLKPEDTADYYCNVRFNYRGTYDYWGQGTQVTVSS")
"low polyreactivity"
>>> readout_value("QVQLVESGGGLVQAGGSLRLSCAASGSIFYSYAMGWYIQAPGKERELVAVISSGGRTNYADSVKGRFTISRDNAKNTVYLQMNSLKPEDTAVYYCAARNYLYRYARAYDYWGQGTQVTVSS")
"high polyreactivity"

---

assay.details: yeast display, Sf9 membrane polyspecificity reagent, FACS + sequencing; frameworks hold sequencing errors
reported.metric: polyreactivity (PSR sort gate)

>>> readout_value("QVQRVESGGGLVQAGGSLRLSCAASGSTFNRNALGWYRPEPGKERELVAAISWRGDSTSYADSVKGRFTITRDNAKNTVYLQMNSLKPEDTAVYNCASAHAYAFYRYWYVPSEYNYWGQGTQVTVSS")
"low polyreactivity"
>>> readout_value("QVHLVESGGGLVQAGGSLRLSCAASGRIFNQYGMGWSRQAPGKERELVAAIRSGDSTNYADSVKGRFTISRDNAKNTVYLQMNSLKPEDTAVYYCARDRPGDYAGYDYWGQGTQVTVSS")
"low polyreactivity"
>>> readout_value("QVQLVESGGGLVQAGGSLRLSCAASGNTFAGNAMGWYRPAPGKERELVAAISRSGVTTRYADSVKGRVTISRDNAKHTVYLQMNSLKPEDTAVYYCNADPRLRQTRDYWGQGTQVTVSS")
"high polyreactivity"
>>> readout_value("QVQLVESGGGLVQAGGSLRLSCAASGFTFYGYAMGWYRQAPGKERELVAAISSRGSRTYYADSVKGRFTISRDNAKNTGYLQMNSLKPEDTAFYYCAVDKAITQGLYDYWGQGTQVTVSS")
"high polyreactivity"
>>> readout_value("QVQLVESGGGLVQAGGSLRLSCAASGSISYYNAMGWYRQAPGKERELVATITDSGGSTYYADSVKGRFTISRDNAKNTVYLQLNSLKPEDTAVYYCAVDYSEWYSIYDYWGQGTQVTVSS")
"low polyreactivity"
>>> readout_value("QVQHVESGGGLVQAGGSLRLSCAASGGIFRFYAMGWYRQAPGKERELVARITSSGGGTYYADSVKGRFTISRDNAKNTVYLQMNSLKPEDTAVSYCAALVYSSYPAGWYDYWGQGTQVTVSS")
"high polyreactivity"
>>> readout_value("QGQLVESGGGLVQEGGSLRLSCAASGSTFKRYVMGWYRQAPGKERELVAAITWSGTRTYYADSVKGRFTISRDNAKNTVYLQMNSLKPVDTAVYYCAARLYGGYDWGQGTQVTVSS")
"high polyreactivity"
>>> readout_value("QVQLVESGGGVVQAGGSLRLSCAASGSTFYYNAMGWNRQAPGKERELVARISRSGGSTYADSVKGRFTISRDNAKNTVYLQMNSLKPEDTAVYYCNADAYGTPEFTSYAVRYDYWGQGTQVTVSS")
"low polyreactivity"
>>> readout_value("QVQLVESGGGLVQAGGSLRLSCAASGRTFAYYAMGWYRQAPGKERELVAAISTSGTRTYYADSVKGRFTISRDNAKNTVYLQMNSLKPEDTAVYYCAARYRYQYEFDYWGQGTQVTVSS")
"high polyreactivity"
>>> readout_value("QVQLVESGGGLVQAGGSLRLTCAASGLIFARNAMGWYRQAPGKDRELVAAISSSGNTYADSVKGRFTISRDNAKNTVYLHMNSLKPEDTAVYYCNAVRRIRVTSTYDYWGQGTQVTVSS")
"high polyreactivity"
>>> readout_value("QDQLVESGGGLVQAGGSLRLSCAASGSISWVYSMGWYRQAPGKEREFVAAISESGDTYYADSVKGRFTISRDNAKNTVYLQMNSLKPEDTAVYYCAATSPDGVTYDYWGHGTQVTVSS")
"low polyreactivity"

---

assay.details: yeast display, Sf9 membrane polyspecificity reagent, FACS + sequencing; frameworks hold sequencing errors
reported.metric: polyreactivity (PSR sort gate)

>>> readout_value("QVQLVESGGGLVQAGGSLRLSCAASGSTFTRYGMGWYRQAPGKERELGAAITTSGSSTYYADSVKGRFTISRDNAKNTVYLQMNSLKPEDTAVYYCAADWSSWGFDYWGQGTQVTVSS")
"low polyreactivity"
>>> readout_value("QVQLVESGGGLVQAGGSLRLSCAASGYIIGGNAMGWYRQAPGKERELVAVISSRGGRTYYADSVKGRFTISRDNAKNTVYLQMNSLKPEDTAVSYCNRDFSYQYKRDYWGQGTQVTVSS")
"high polyreactivity"
>>> readout_value("QVQLVESGGGLVQAGGSLRLSCAASGGTFGGNAMGWYRQAPGKERELVAAITDIGGSTYYADSVKGRFTISRDNAKNTVYLQMNSLKPEDTAVYYCAKDNVEVVGQWSSDEYDYWGQGTQVTVSS")
"low polyreactivity"
>>> readout_value("QHQLVESGGGLVQAGASLRLSCAASGRTFFKNAKGWYRQAPGKERELVAGISRTGSTNYADSVKGRFTISSDNAKNTVYLEMNSLKPEDTAVYYCAAGVLGLPLRHRYDYWGQGTQVTVSS")
"low polyreactivity"
>>> readout_value("QVQLVESGGGLVQAGGSLRLSCAASGFIFRGYAMGWYRQAPGKERELVAAISRSGGSTYYADSVKGRFTISRDNAKNTVYLQMNSLKPEDTAVYFCAVALFETGHYYWGQGTQVTVSS")
"high polyreactivity"
>>> readout_value("QVQLVESGGGLVQAGGSLRLSCAASGFIFGYYTMGWYRQAPGKEREVVAAISSSGGRTYYADSVKGRFTISRDNAKNTVYLQMNSLKPEDTAVYYCAKQNRGSEPAYDYWGQGTQVTVSS")
"low polyreactivity"
>>> readout_value("QVQLVESGGGLVQAGGSHRLSCAASGLTFSKYAMGWYRQAPGKERELVAAIRRSGGSTYYADSVKGRFTISRDNAKNTVYLQMNSLKPEDTAVYYCAADNYRYWNILRDYWGQGTQVTVSS")
"low polyreactivity"
>>> readout_value("QVQIVESGGRIVQAGGSIRLSCAASGSTFLFYAMGRSRQAPGKERQLVAAISYSGGSTFYADSVKGRFTISRDNAKNTVYLQMNSLKPEDTAVYYCAAESYSYGFTHEYWGQGTQETVSS")
"high polyreactivity"
>>> readout_value("QVQLVESGGGLVQAGGSLRLSCAASGFIFDFYTMGWYRQATGKESELVAAITWSGDSTYYADSVKGRFTISRDNAKNTVYLQMNSLKPEDTAVYYCAADWWGVWYFDYDYWGQGTQVTVSS")
"low polyreactivity"
>>> readout_value("QVQLVESGGGLVQAGGSLRLSCAASGRTFPYYAMGWYRQAPGKERELVARITSGSGTYYADSVKGRFTISRDNAKNTVYLQMNSLKPEDTAVYYCAAREPGVGYVGNYTGLVYWGQGTQVTVSS")
"low polyreactivity"
>>> readout_value("QVQLVESGGGLVQAGGSLRLSCAASGFTFSKYVMGWYRQAPGKERELVAAISKRGGSTYYADSVKGRFTISRDNAKNTVYLQMNSLKPEDTAVYYCAARYYLEPILEMDYWGQGTQVTVSS")
"high polyreactivity"
